Target: UniProt P21731
Sequence (P21731 1-343): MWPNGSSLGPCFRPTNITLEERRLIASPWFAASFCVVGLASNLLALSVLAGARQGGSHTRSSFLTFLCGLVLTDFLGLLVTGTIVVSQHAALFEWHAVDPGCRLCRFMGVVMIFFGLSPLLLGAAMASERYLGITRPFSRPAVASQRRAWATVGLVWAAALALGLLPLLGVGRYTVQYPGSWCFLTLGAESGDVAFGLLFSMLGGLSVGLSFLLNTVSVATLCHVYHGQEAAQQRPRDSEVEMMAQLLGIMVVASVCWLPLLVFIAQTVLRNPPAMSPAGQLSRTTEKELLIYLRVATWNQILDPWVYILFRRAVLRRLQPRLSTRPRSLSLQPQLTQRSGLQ
Assay: FLIPR calcium signal, hTP
Conditions: HEK-293(EBNA) cells, read-out: FUNCTIONAL (nm) HTP
pEC50: −log10 of the molar value.
endpoint label: pEC50

- O=C(O)CCC/C=C\C[C@H]1C(=O)C(O)C[C@@H]1/C=C/C(O)CCc1sc2ccccc2c1Cl (single isomer, unassigned) [Compound 9L]: < 5.00

----------
Catalogue of molecules with associated EC50
molecular target: hEP4/Gqs5 (Homo sapiens); test: FLIPR calcium signal, hEP4; conditions: HEK-293(EBNA) cells, read-out: FUNCTIONAL (nm) HEP4
Sequence (P35408 whole entry): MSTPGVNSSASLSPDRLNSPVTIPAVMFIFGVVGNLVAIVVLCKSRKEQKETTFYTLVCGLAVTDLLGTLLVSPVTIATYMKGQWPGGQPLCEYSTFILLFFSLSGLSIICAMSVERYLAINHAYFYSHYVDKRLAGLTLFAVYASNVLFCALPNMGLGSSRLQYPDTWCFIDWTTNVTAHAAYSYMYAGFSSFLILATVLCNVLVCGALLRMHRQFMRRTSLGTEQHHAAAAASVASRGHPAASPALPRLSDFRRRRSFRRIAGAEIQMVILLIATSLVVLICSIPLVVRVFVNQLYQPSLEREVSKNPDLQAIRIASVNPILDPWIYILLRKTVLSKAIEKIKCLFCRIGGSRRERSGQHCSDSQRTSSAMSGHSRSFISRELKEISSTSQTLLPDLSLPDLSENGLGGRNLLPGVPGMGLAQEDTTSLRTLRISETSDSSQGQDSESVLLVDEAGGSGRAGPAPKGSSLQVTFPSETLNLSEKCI
endpoint label: EC50 (nM)

• O=C(O)CCC/C=C\C[C@H]1C(=O)C(O)C[C@@H]1/C=C/C(O)CCc1sc2ccccc2c1Cl (single isomer, unassigned) [Compound 9L] = 78
• O=C(O)CCC/C=C\C[C@H]1C(=O)C(O)C[C@@H]1/C=C/C(O)CCc1sc2ccccc2c1Cl (single isomer, unassigned) [Compound 9H] = 53
